target: human SIRPβ1v1 (huSIRPβ1v1) (human) (UniProt O00241); assay: ELISA, antigen coated
Sequence (O00241 30-371): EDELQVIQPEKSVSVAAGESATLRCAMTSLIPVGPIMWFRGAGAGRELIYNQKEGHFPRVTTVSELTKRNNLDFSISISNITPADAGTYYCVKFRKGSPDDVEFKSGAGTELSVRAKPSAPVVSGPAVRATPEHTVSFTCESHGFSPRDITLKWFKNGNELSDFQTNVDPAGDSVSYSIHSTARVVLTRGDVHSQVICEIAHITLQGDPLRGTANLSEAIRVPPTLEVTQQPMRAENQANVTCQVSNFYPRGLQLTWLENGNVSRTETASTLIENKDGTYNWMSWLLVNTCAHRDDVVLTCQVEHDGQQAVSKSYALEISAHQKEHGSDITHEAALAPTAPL

{"binder": "12C4huIgG1LALA (antibody, V domains shown, HAVT20 leader left out; also called 12C4LALA; huIgG112C4LALA) VH: EVKLEESGGGLMQPGGSMKLSCVASGFTFSNYWMNWVRQSPEKGLEWVAEIRLKSNNYATHYAESVKGRFTISRDDSKSSVYLQMNNLRAEDTGIYYCIRDYDYDAYFDYWGQGTTLTVSS VL: DIVLTQSPASLAVSLGQRATISCRASKSVSTSGYNYMYWYQQKPGQPPKLLIYLASNLESGVPARFSGSGSGTDFTLNIHPVEEEDAATYYCQHSGELPYTFGGGTKLEIKR", "EC50": "0.008 µg/mL"}
{"binder": "anti-SIRPα antibody 3 (antibody, human IgG1, kappa, L234A L235A, V domains shown, Rabbit variable regions on human IgG1 LALA / kappa) VH: QSVEESGGRLVTPGTPLTLACTVSGFSLISYYISWVRQAPEKGLEYIGIINIGGGASYASWAKGRFTISKTSTTVDLKITSPTPEDTATYFCAMSYGMDTGAFNIWGPGTLVTVSL VL: AQVLTQTPASVSAAVGGTVTISCQSSESVYKNNFLSWYQQKPGKPPKLLIYGASTLASGVPSRFKGSGSGTQFTLTISDLESDDAATYFCQGGYRTDIYPFGGGTEVVVKR", "EC50": "> 100 µg/mL"}
{"binder": "anti-SIRPα antibody 8 (antibody, human IgG1, kappa, L234A L235A, V domains shown, Rabbit variable regions on human IgG1 LALA / kappa) VH: QSLEESGGRLVTPGTPLTLTCTASGVDLSNYAMGWVRQAPGKGLEWIGIIYAGGSTSYATWAKGRFTISKTSTTMDLKMTSPTTEDTATYFCARHRSDGYDYFHLWGPGTLVTVSL VL: AIDMTQTPASVSEPVGGTVTIKCQASQSISSWLAWYQQKPGQRPKLLIYDASKLASGVPSRFSGSGSGTEFTLTISGVQSDDAAAYYCQQGYAVSYVENIFGGGTEVVVKR", "EC50": "> 100 µg/mL"}
